Value source: patent US20250041437A1

target: T1, human MUC1 on cells (DA3-TM transfectants and human cancer cell lines SKOV3, COLO357, HT29 and others) (human, UniProt P15941 24-1255); experiment: flow cytometry on DA3-TM cells; table row 5 of 5, about 0.4 nM by the matching point in FIG. 3A
T1 construct: also called MUC1-SEA; surface MUC1
T1 sequence (P15941 24-1255 limits assumed): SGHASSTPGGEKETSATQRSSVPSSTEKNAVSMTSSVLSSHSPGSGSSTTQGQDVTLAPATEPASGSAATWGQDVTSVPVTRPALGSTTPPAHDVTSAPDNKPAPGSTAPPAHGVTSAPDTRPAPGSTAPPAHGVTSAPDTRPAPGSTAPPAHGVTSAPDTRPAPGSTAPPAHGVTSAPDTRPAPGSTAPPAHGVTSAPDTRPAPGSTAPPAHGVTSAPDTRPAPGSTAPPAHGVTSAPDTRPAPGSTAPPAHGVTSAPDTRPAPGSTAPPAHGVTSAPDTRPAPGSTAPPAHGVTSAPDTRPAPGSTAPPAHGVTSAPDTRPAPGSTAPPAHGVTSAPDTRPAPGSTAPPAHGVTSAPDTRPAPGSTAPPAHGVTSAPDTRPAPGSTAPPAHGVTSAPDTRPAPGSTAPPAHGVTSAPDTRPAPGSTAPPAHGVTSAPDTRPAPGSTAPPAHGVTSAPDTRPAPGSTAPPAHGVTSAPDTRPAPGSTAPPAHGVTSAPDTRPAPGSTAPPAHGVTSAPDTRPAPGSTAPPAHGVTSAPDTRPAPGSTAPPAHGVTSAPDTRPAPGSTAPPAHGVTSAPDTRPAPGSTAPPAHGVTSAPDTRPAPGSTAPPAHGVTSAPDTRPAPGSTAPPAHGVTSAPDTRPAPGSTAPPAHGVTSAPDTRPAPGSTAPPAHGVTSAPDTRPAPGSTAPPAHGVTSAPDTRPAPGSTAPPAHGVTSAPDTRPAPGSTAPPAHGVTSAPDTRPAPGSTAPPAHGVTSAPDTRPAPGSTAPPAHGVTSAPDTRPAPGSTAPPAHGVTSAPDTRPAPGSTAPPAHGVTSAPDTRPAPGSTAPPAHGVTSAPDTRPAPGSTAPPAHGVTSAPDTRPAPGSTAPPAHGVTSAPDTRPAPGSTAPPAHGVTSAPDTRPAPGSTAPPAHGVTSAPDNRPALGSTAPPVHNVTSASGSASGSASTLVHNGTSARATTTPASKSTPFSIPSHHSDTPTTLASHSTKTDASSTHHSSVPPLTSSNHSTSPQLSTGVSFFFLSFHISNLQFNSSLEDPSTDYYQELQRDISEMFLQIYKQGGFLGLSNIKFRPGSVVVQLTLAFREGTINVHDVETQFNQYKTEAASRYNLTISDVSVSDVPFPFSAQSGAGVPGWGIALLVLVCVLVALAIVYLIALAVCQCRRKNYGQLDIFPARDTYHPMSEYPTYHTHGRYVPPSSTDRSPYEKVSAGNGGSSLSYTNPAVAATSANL
property_name: Geometric Mean : FL6-A

{"columns": ["binder", "property_name", "result"],
 "data": [
  ["HM4 LM3 variant of humanized anti-MUC1 antibody SP66 (antibody, V domains shown, Humanized IgG expressed in CHO cells; only variable domains tied to the variant) VH: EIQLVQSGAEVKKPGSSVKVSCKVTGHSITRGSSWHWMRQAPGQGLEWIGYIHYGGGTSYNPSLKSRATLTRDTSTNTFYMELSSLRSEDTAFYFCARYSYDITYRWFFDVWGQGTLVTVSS VL: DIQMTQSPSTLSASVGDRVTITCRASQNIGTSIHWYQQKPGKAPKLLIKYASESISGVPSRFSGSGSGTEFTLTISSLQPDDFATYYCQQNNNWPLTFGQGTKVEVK", "Geometric Mean : FL6-A", 5320]
]}
